Ref: patent US20160032279

tested.system: T1, C-reactive protein (human), P02741
T1 chain: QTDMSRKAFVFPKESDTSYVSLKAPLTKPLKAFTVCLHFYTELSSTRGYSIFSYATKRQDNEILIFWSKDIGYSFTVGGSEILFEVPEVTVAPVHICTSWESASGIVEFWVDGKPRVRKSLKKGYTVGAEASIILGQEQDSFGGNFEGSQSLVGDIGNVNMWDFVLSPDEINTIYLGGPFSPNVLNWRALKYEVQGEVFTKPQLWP
assay.overview: FACS
recorded.conditions: modification not given
measured.endpoint: pKd
Numbers only, as −log10 of the molar value.

Here are 3 binders together with their reported answers.
{"binder": "EWACNDRGFNCQLQR [CRP-1]", "reported.value": 8.92}
{"binder": "FPIYNQRGFITLASP [CRP-2]", "reported.value": 8.52}
{"binder": "YPPRFQYYRFYYRGP [CRP-10]", "reported.value": 8.30}

Now look at this entry.
Q: For MIFNSRGFLSLMSSG [CRP-6] , what is its reported pKd?
Ans: 8.10
